- TARGET ENTITY: T1, HumanB7-H4 (Homo sapiens, UniProt Q7Z7D3)
- T1 construct: Human B7H4 ECD; FLAG; 10His; made in house
- T1 sequence (Q7Z7D3 25-259 limits assumed): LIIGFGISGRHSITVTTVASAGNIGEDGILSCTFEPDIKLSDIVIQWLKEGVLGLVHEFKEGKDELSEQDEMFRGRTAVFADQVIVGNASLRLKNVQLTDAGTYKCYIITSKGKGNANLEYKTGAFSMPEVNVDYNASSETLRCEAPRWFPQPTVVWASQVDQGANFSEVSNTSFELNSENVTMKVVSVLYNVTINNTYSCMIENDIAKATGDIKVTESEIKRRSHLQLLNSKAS
- ASSAY NOTES: ForteBio Octet affinity
- Type: binding
- STUDY CONDITIONS: hIgG1-TM (n = 4-7)
MEASURED PARAMETER: kdis (s⁻¹)
A number alone suffices; assume s⁻¹.

### Prompt I have this molecule here, ZY0EP0-C07: anti-B7-H4 antibody clone, VH SEQ ID NO: 39, VL SEQ ID NO: 40 (antibody, V domains shown) VH: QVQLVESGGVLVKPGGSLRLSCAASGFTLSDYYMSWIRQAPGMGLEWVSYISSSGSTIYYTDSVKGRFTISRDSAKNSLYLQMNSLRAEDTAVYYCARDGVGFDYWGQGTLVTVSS VL: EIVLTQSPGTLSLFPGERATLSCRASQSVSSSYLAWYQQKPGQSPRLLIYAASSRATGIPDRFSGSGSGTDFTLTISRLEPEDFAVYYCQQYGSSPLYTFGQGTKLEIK , and I need its recorded kdis.
### Response 0.000397
